Data origin, for the record: the NIST ThermoML archive (doi:10.1021/je8004134)

assay: an = ratio of the nth substance listed, in mol/kg; conditions: 298.15 K; 101 kPa; Liquid; Vibrating tube method; a2 = 0
Kindly supply the reported mass density values for the records listed here.
Give bare numbers, in kg/m3.

// solved cases for mass density follow
>>> result_value("CC(=O)N(C)C [N,N-dimethylethanamide] + [Co+2].[O-][Cl+3]([O-])([O-])[O-].[O-][Cl+3]([O-])([O-])[O-]")
936.233
>>> result_value("C[S+](C)[O-] [dimethyl sulfoxide] + [Cl][Ni][Cl]")
1095.19
>>> result_value("CC(=O)N(C)C [N,N-dimethylethanamide] + [Cl][Ni][Cl]")
936.23

Hi there! I need mass density for each item below, if you can.
1. CC(=O)N(C)C [N,N-dimethylethanamide] + [Cl][Cu][Cl]
2. CC(=O)N(C)C [N,N-dimethylethanamide] + [O-][Cl+3]([O-])([O-])[O-].[O-][Cl+3]([O-])([O-])[O-].[Zn+2]

[reply]
[936.304, 936.15]

# batch size: 8; output mass density per entry
1. C[S+](C)[O-] [dimethyl sulfoxide] + [Mn+2].[O-][Cl+3]([O-])([O-])[O-].[O-][Cl+3]([O-])([O-])[O-]
2. CC(=O)N(C)C [N,N-dimethylethanamide] + [Cl-].[Cl-].[Zn+2]
3. C[S+](C)[O-] [dimethyl sulfoxide] + [Cl-].[Cl-].[Zn+2]
4. CC(=O)N(C)C [N,N-dimethylethanamide] + [Ni+2].[O-][Cl+3]([O-])([O-])[O-].[O-][Cl+3]([O-])([O-])[O-]
5. CC(=O)N(C)C [N,N-dimethylethanamide] + [Mn+2].[O-][Cl+3]([O-])([O-])[O-].[O-][Cl+3]([O-])([O-])[O-]
6. C[S+](C)[O-] [dimethyl sulfoxide] + [O-][Cl+3]([O-])([O-])[O-].[O-][Cl+3]([O-])([O-])[O-].[Zn+2]
7. CC(=O)N(C)C [N,N-dimethylethanamide] + [Cl][Mn][Cl]
8. C[S+](C)[O-] [dimethyl sulfoxide] + [Co+2].[O-][Cl+3]([O-])([O-])[O-].[O-][Cl+3]([O-])([O-])[O-]

[reply]
[1095.19, 936.22, 1095.2, 936.168, 936.213, 1095.2, 936.233, 1095.19]
